- Test system: MS2 coat protein
- TEST_PROTOCOL: apparent KD of MS2 coat protein; higher = weaker reporter binding
- MEASUREMENT_SETUP: Eterna round: R107; input ligand: arginine 13.2 mM
Entries and their measured apparent KD of MS2 coat protein follow.
MEASURED_ATTRIBUTE: apparent KD of MS2 coat protein (nM)

SEQ: ACAUGAGGAUCACCCAUGUAAUUGCCGGAAGGAGCGUCAUUAAGGACAGGUAGGUCGCUGGUAGGGUCGUCGGUUACGGCGGCCA [SSArg A #10]
NUMERIC_VALUE: 13.3

SEQ: AAUCAUAACUGAAGGAGCGUCUAUAUUACAUGAGGAUCACCCAUGUUUAUAUGGUAUUAUAGACAGGUAGGUCGCAGAUUUUUUA [JR_SSArginiB_Sub017]
NUMERIC_VALUE: 20.7

SEQ: UCACAUGAGGAUCACCCAUGUAAAGUUGAAGGAGCGAUCAUUAGGUCAGGUAGGUCGCAACACAUGAGGAUCACCCAUGUUGUCC [DOUBLE!!! :-D]
NUMERIC_VALUE: 25.7

SEQ: GACCACAUGAGGAUCACCCAUGUCUUGGUCCGAGGACCGGUACGGCCGCCACUCGAGAGCCGUACAAAUAAACGGAGUGCCAUCA [theeternabot_sameState_MS2_Trp_A_31]
NUMERIC_VALUE: 12.5

SEQ: GGUCCCGUCGGAAGGAGCGACAUGAGGAUCACCCAUGUCUCCCGUUAUGGGAGUUCUUUAGGUCAGGUAGGUCGCCGGCGGGAGC [#1 Exclusion - Arginine B Attempt #15 (Inspired by Omei)]
NUMERIC_VALUE: 52.4

SEQ: GGAUCAGGAUCGGCCGCCACUGAUAGUGAUCCAACGACAUGAGGAUCACCCAUGUACAUUUUAAUCAGGACCGGGAUCAAGUUCC [Tryp B Ex t7]
NUMERIC_VALUE: 40

Reference for the values: the supplement of paper PMC9170038
